Measured Selective activity, listed per entry for reference.
Molecular target: human thrombin with His tag (human, UniProt P00734 328-622)
Assay: Biacore; ratio of KD on pro-thrombin to KD on thrombin
Just the number, please.

Below: 2 binders and their reported Selective activity.
• aTM-4 (antibody, V domains shown) VH: EVQLVESGGGLVQPGGSLRLSCAASGFTFSDYYMAWVRQAPGKGLEWVSNINSDGSSTYYLDSLKSRFTISRDNSKNTLYLQMNSLKAEDTAVYYCARDHYLGNSYVFDLWGQGTTVTVSS VL: DIQMTQSPSSLSASVGDRVTITCKASEDIYNRLAWYQQKPGKAPRLIISGATSLETGVPSRFSGSGSGKDYTLTISSLQPEDFATYYCQQYWSTPWTFGGGTKVEIK = 18.2
• aTM-7 (antibody, V domains shown) VH: EVQLVESGGGLVQPGGSLRLSCAASGFTFSDYYMAWVRQAPGKGLEWVSNINSDGSSTYYLDSLKSRFTISRDNSKNTLYLQMNSLKAEDTAVYYCARDHYMGNSYVFDTWGQGTTVTVSS VL: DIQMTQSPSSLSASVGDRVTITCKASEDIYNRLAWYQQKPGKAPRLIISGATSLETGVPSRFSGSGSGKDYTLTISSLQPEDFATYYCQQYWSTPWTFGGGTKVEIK = 11.9

Q) Any idea what Selective activity was measured for humanized antibody h1601-008 (antibody, human IgG4 S228P, kappa, V domains shown) VH: EVQLVESGGGLVQPGGSLRLSCAASGFTFSDYYMAWVRQAPGKGLEWVSNINSDGSSTYYLDSLKSRFTISRDNSKNTLYLQMNSLKAEDTAVYYCARDHYHGNSYVFDYWGQGTTVTVSS VL: DIQMTQSPSSLSASVGDRVTITCKASEDIYNRLAWYQQKPGKAPRLIISGATSLETGVPSRFSGSGSGKDYTLTISSLQPEDFATYYCQQYWSTPWTFGGGTKVEIKR ?
A) 9.9
